Cited source for all entries: paper PMC9426601

- system.under.test: NA activity of A(H3N2)-WT (Influenza A virus)
- Sequence (P06818 whole entry): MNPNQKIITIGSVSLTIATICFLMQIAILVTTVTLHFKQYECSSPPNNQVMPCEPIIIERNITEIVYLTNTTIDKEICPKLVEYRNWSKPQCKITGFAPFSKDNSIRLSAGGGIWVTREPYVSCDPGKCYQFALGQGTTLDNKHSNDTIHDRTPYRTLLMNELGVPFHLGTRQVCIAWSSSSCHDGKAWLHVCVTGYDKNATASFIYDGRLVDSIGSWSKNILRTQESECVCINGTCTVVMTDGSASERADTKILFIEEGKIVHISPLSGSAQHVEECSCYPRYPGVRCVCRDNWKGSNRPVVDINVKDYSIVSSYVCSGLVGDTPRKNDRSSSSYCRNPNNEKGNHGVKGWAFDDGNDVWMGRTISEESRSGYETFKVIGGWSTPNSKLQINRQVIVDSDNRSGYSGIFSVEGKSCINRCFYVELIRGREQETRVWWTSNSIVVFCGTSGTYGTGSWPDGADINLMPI
- Format: biochemical
- condition.context: read-out: Oseltamivir IC50 (nM) NIA
measurement.kind: IC50 (nM)
Lab book: enter the figure in nM, no units written.

Measured IC50, CCOC(=O)C1=C[C@@H](OC(CC)CC)[C@H](NC(C)=O)[C@@H](N)C1 [Oseltamivir, oseltamivir] : 0.22
